Measured values drawn from paper PMC10397247 for this set.

Biological target: T1, 4H741-bH
T1 chain: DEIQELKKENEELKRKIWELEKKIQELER
Assay: two-hybrid library CCNG1;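 further: natural log of median RNA to DNA barcode read ratio; higher means stronger binding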
Returns Condition met if the recorded interaction score is greater than or equal to -0.2, and Condition not met otherwise.

| binder | answer-label |
| --- | --- |
| DKNQELEKENEELKREIWELKKKIQELER [4H3277-bH] | Condition not met |
| DENQELEKENEELKREIWELEKKIQELKR [4H1222-bH] | Condition not met |
| DKIQELKKENEELERENWELKKKIQELER [4H2717-bH] | Condition not met |
| DKIQELKKKIEELERENWELEKKNQELER [4H2839-bH] | Condition not met |
| DKIQELEKENEELERKIWELKKKNQELER [4H2223-bH] | Condition met |
| DEIQELEKKNEELKRKIWELKKENQELKR [4H492-bH] | Condition not met |
| DKIQELEKKNEELEREIWELEKKIQELKR [4H2438-bH] | Condition not met |
| DEIQELEKKIEELERKNWELKKKNQELER [4H319-bH] | Condition met |
| DEIQELEKKNEELKRENWELKKKIQELER [4H477-bH] | Condition not met |
| DKIQELEKKNEELKREIWELEKKNQELER [4H2503-bH] | Condition met |
| DKIQELEKKNEELERKIWELKKEIQELER [4H2473-bH] | Condition not met |
| DEIQELEKEIEELKRKNWELKKEIQELER [4H121-bH] | Condition not met |
| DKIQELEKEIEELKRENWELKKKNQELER [4H2143-bH] | Condition met |
| DEIQELEKEIEELERKIWELEKKNQELKR [4H40-bH] | Condition met |
